experimental_target: UniProtKB P0DMS8
Sequence (P0DMS8 whole entry): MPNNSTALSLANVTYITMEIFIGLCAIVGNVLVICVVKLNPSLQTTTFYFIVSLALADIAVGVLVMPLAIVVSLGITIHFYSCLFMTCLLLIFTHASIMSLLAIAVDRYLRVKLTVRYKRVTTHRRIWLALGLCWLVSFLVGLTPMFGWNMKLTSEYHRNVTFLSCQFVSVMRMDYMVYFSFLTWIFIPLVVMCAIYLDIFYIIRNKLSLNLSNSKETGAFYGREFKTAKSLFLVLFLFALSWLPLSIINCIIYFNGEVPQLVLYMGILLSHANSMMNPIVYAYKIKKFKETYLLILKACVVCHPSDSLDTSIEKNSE
method: Antagonist activity at human A3 receptor expressed in CHO cells assessed as inhibition of Cl-IB-MECA-induced cAMP production by scintillation counting method
IC50 values for the molecules below.

>  <substance_smiles>
O=C(Nc1nc(-c2cccs2)nc2cn(-c3ccccc3)nc12)c1ccncc1

>  <IC50, nM>
37

$$$$
>  <substance_smiles>
O=C(Nc1nc(-c2cccs2)nc2cn(-c3ccccc3)nc12)c1cccnc1

>  <IC50, nM>
1.01

$$$$
>  <substance_smiles>
O=C(Nc1nc(-c2ccccc2)nc2cn(-c3ccccc3)nc12)c1cccs1

>  <IC50, nM>
13

$$$$
>  <substance_smiles>
COc1ccc(C(=O)Nc2nc(-c3cccs3)nc3cn(-c4ccccc4)nc23)cc1

>  <IC50, nM>
0.11

$$$$
>  <substance_smiles>
COc1ccc(-c2nc(NC(=O)c3ccccc3)c3nn(-c4ccccc4)cc3n2)cc1

>  <IC50, nM>
26

$$$$
>  <substance_smiles>
COc1ccc(-c2nc(NC(=O)c3ccncc3)c3nn(-c4ccccc4)cc3n2)cc1

>  <IC50, nM>
39

$$$$
>  <substance_smiles>
COc1ccc(C(=O)Nc2nc(-c3ccc(OC)cc3)nc3cn(-c4ccccc4)nc23)cc1

>  <IC50, nM>
4.27

$$$$
